Tested on: Rattus norvegicus
Measurement notes: Toxicity in anaesthetized-Wistar rat assessed as QRS ECG interval at 40 mg/kg, ip after 30 mins (reference value: 19.9 +/- 1.393 ms)
Format: organism-based
Design: dose 40 mg/kg, route intraperitoneal
Condition info: in vivo, 0.5 h
Measurement label: Activity (ms)

compound="O=C1/C(=C\\c2ccccc2)S/C(=N\\c2ccccc2)N1CC(O)CN1CCCCC1 (centres undefined)" target_system="Rattus norvegicus" observed_measurement=21.9
compound="O=C1/C(=C\\c2ccccc2)S/C(=N\\c2ccccc2)N1CC(O)CN1CCC(C(O)(c2ccccc2)c2ccccc2)CC1 (centres undefined)" target_system="Rattus norvegicus" observed_measurement=23.8
compound="O=C1/C(=C\\c2ccccc2)S/C(=N\\c2ccccc2)N1CC(O)CN1CCN(c2ccccc2)CC1 (centres undefined)" target_system="Rattus norvegicus" observed_measurement=23.5
compound="O=C1/C(=C\\c2ccccc2)S/C(=N\\c2ccccc2)N1CC(O)CN1CCN(C2CCCCC2)CC1 (centres undefined)" target_system="Rattus norvegicus" observed_measurement=21.9
compound="O=C1/C(=C\\c2ccccc2)S/C(=N\\c2ccccc2)N1CC(O)CN1CCN(Cc2ccccc2)CC1 (centres undefined)" target_system="Rattus norvegicus" observed_measurement=23.8
compound="CCCN(CCC)CC(O)CN1C(=O)/C(=C\\c2ccccc2)S/C1=N\\c1ccccc1 (centres undefined)" target_system="Rattus norvegicus" observed_measurement=23.8
compound="O=C1/C(=C\\c2ccccc2)S/C(=N\\c2ccccc2)N1CC(O)CN1CCOCC1 (centres undefined)" target_system="Rattus norvegicus" observed_measurement=23.8
compound="O=C1/C(=C\\c2ccccc2)S/C(=N\\c2ccccc2)N1CC(O)CN1CCCC1 (centres undefined)" target_system="Rattus norvegicus" observed_measurement=22.5
compound="O=C1/C(=C\\c2ccccc2)S/C(=N\\c2ccccc2)N1CC(O)CN(c1ccccc1)c1ccccc1 (centres undefined)" target_system="Rattus norvegicus" observed_measurement=22.1
